# System: 186277-243-T-J2-PDC complex spheroid viability;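 note: 7 day exposure to compounds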
# test protocol: Anticancer human tumor 186277-243-T-J2-PDC patient-derived colon adenocarcinoma cell line growth inhibition; active = viability on the fitted dose curve at most 10% of control; inactive = the rest
# measurement context: second compound 1 µM; first compound 0.0316 µM
Select the matching outcome among active, inactive

{"compound": "CC(C)CC(NC(=O)CNC(=O)c1cc(Cl)ccc1Cl)B1OC(=O)CC(CC(=O)O)(C(=O)O)O1 (stereo unspecified) + NC1CC1c1ccc(-c2cccc(O)c2)cc1", "system name": "186277-243-T-J2-PDC complex spheroid viability", "group label": "active"}

q: Per the records of this test, what outcome belongs to O=C(c1cc(Cc2n[nH]c(=O)c3ccccc23)ccc1F)N1CCN(C(=O)C2CC2)CC1 + NC1CCC(NC2CC2c2ccccc2)CC1 ?
a: inactive

q: Which result was noted for this compound in the test: CC1COCCN1c1cc(-c2ccnn2C)c2ccnc(-c3ccn[nH]3)c2n1 (stereo unspecified) + NC1CCC(NC2CC2c2ccccc2)CC1
a: inactive

q: Which result was noted for this compound in the test: CC(C)CC(NC(=O)C(Cc1ccccc1)NC(=O)c1cnccn1)B(O)O (stereo unspecified) + NC1CCC(NC2CC2c2ccccc2)CC1
a: active

q: Per the records of this test, what outcome belongs to Nc1ncn(C2CC(O)C(CO)O2)c(=O)n1 (stereo unspecified) + NC1CCC(NC2CC2c2ccccc2)CC1 ?
a: inactive

q: Record request — test call for Nc1ncn(C2CC(O)C(CO)O2)c(=O)n1 (stereo unspecified) + NC1CC1c1ccc(-c2cccc(O)c2)cc1
a: inactive

Values from PubChem BioAssay AID1918933
